tested on: ATP; test: switch fluorescence ratio, 500 uM ATP over buffer (Cy3 cluster intensity, sum of 5 cycles each) (fold (ratio)); higher = stronger signal-on switching upon ATP binding; sequences stand for … in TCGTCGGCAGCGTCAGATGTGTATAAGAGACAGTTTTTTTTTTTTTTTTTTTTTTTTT…TC; details: aptamer strand: ATP DNA aptamer (quencher-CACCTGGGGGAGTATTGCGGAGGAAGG + anchor), 100 nM annealed; ATP concentration: 500 uM;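 also: ATP exposure 15 min at 22 °C before imaging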

# Chain sequence, switch fluorescence ratio
data = [
    ("AGGAGGGATA", 1.04),
    ("CCAGCATAGA", 1.14),
    ("TTTCTGTTTG", 1.01),
    ("GGTAAGTGTT", 1),
    ("GATAGGGATG", 1),
    ("ATGGTATCT", 1.08),
    ("CGAGTTGGTA", 1.01),
    ("ATTGGTTTGG", 1.03),
    ("GGCCCATAGC", 0.986),
    ("TCAACGAATG", 0.994),
    ("TCGAGAATGG", 0.952),
    ("GGCGGCAAAA", 1.07),
    ("ACGTACTACT", 1.39),
    ("CGGTCATTCA", 1.02),
    ("TAAGTCGTGG", 0.974),
    ("CGTATCAAAA", 1.02),
]

* * *

system: ATP; test: switch fluorescence ratio, 500 uM ATP over buffer (Cy3 cluster intensity, sum of 5 cycles each) (fold (ratio)); higher = stronger signal-on switching upon ATP binding; sequences stand for … in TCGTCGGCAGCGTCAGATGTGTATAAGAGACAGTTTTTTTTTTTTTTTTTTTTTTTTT…TC; settings: aptamer strand: ATP DNA aptamer (quencher-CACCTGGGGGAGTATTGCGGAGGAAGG + anchor), 100 nM annealed; ATP concentration: 500 uM;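 also: ATP exposure 15 min at 22 °C before imaging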
Listing: switch fluorescence ratio of selected sequences

# Chain sequence, Assay target, switch fluorescence ratio
rows = [
    ("TGGATGAAGT", "ATP", 1),
    ("AAGTTGAGGA", "ATP", 0.978),
    ("AATTTGGTTT", "ATP", 1.02),
    ("TAATTATTCT", "ATP", 1.02),
    ("GGTATGTTGG", "ATP", 0.996),
    ("ACAAGTTTAA", "ATP", 0.997),
    ("CTGGTATGTG", "ATP", 0.997),
    ("TTGTCGTATC", "ATP", 1),
    ("GGAGTTCGGG", "ATP", 0.978),
    ("AAAAGGGCAG", "ATP", 0.986),
    ("TTGCGTATGG", "ATP", 1.01),
    ("AAGATCATCT", "ATP", 1.01),
    ("TTTACATTTT", "ATP", 0.998),
    ("TTGGAGAGGT", "ATP", 1.02),
    ("TAGGATGGAG", "ATP", 0.974),
    ("TTAGAGTCTG", "ATP", 1),
    ("TATGGGCCTA", "ATP", 0.971),
    ("GGCAAAACAG", "ATP", 0.996),
    ("TAAAGCAGGG", "ATP", 1.01),
    ("GCCCGGGATT", "ATP", 1),
    ("ACTTGGTTGT", "ATP", 0.992),
    ("AAAAAGGGGA", "ATP", 1),
    ("ACTAGGGGCA", "ATP", 0.98),
    ("ATGGGGGCGT", "ATP", 0.994),
    ("CACTTTCATG", "ATP", 1.01),
    ("TATGTTACCA", "ATP", 0.977),
    ("CCTTTAGATT", "ATP", 1.01),
    ("TGTTTTAGTG", "ATP", 0.994),
    ("GTTGTGGGTA", "ATP", 0.975),
    ("GATCATATTT", "ATP", 1),
    ("AGGGGGAGCT", "ATP", 1),
    ("GAGTGAGGGT", "ATP", 0.987),
    ("AGGCGAAGCA", "ATP", 0.992),
    ("CATGATTGCG", "ATP", 0.985),
    ("AAGGAATTGG", "ATP", 0.992),
    ("GGTTTAGCTC", "ATP", 0.999),
    ("TTTGTGACTA", "ATP", 1.01),
    ("GTAAGATTGA", "ATP", 0.986),
    ("GTCGCGGTTG", "ATP", 1.03),
    ("TCAGTAAATG", "ATP", 0.969),
    ("TGTAAGGAAC", "ATP", 1.26),
    ("TTTAGGCCGT", "ATP", 1.05),
    ("CTGTGACAAT", "ATP", 1.04),
    ("TAAATCGGTG", "ATP", 0.977),
    ("ATATTTGCCA", "ATP", 1.02),
    ("GGTTTTTTTC", "ATP", 1.02),
    ("CACGGCTTGG", "ATP", 0.974),
    ("TCCACGGATG", "ATP", 1.04),
    ("TTTAACTGCG", "ATP", 1.02),
    ("ACTTTGGTTT", "ATP", 0.993),
    ("AGTGTGTCGG", "ATP", 0.974),
    ("GAGAGGGATT", "ATP", 1.03),
]

* * *

test system: ATP; assay: switch fluorescence ratio, 500 uM ATP over buffer (Cy3 cluster intensity, sum of 5 cycles each) (fold (ratio)); higher = stronger signal-on switching upon ATP binding; sequences stand for … in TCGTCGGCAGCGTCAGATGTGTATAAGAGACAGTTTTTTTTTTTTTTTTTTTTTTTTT…TC; details: aptamer strand: ATP DNA aptamer (quencher-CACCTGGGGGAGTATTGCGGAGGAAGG + anchor), 100 nM annealed; ATP concentration: 500 uM;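 also: ATP exposure 15 min at 22 °C before imaging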
Measured switch fluorescence ratio values are reported for all entries that follow.
Reported metric: switch fluorescence ratio

# Chain sequence, Recorded result
measured = [
    ("CAATATTTTT", 1),
    ("GAAGTTCCCA", 0.979),
    ("TAGGGGGCAC", 1),
    ("GGATTAATTG", 0.996),
    ("GATTAACGTG", 0.992),
    ("TTAAGCTTTT", 0.989),
    ("AGAACGGGGC", 1.02),
    ("TGGTTTTCTT", 0.992),
    ("GGTTTTTTAC", 1),
    ("CGTGGTTTTT", 1.01),
    ("TGGGAATTGT", 1),
    ("TAGCGGCGTC", 1),
    ("GCATGAATCT", 1.01),
    ("GACAATGGTG", 1.02),
    ("AGTTAGGGCA", 0.988),
    ("GCGAGGGGTG", 1.02),
]

* * *

system: ATP; assay: switch fluorescence ratio, 500 uM ATP over buffer (Cy3 cluster intensity, sum of 5 cycles each) (fold (ratio)); higher = stronger signal-on switching upon ATP binding; sequences stand for … in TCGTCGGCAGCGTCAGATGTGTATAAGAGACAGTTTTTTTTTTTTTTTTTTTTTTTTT…TC; conditions: aptamer strand: ATP DNA aptamer (quencher-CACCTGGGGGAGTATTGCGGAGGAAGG + anchor), 100 nM annealed; ATP concentration: 500 uM;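 also: ATP exposure 15 min at 22 °C before imaging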

# Chain sequence, switch fluorescence ratio
measured = [
    ("AGAATAATAG", 1.02),
    ("AATGGGTTGG", 0.988),
    ("ACTGTGTACA", 0.982),
    ("ATATTTAGTT", 1.01),
    ("ATTGGTCATA", 1),
    ("TGGGGAAGAG", 1.02),
    ("GTTGTCGTGT", 1.01),
    ("AAAAATGTAT", 0.975),
    ("TGGGTTAAAT", 0.995),
    ("AAGTTGAAGG", 1),
    ("TGGGAGAGTT", 0.993),
    ("GGTTATTTTT", 1.01),
    ("TTCTTGGCGG", 1),
    ("AGTTTGAGTA", 1.01),
    ("TTACTATTGG", 0.978),
    ("TATTTATGGT", 0.976),
    ("GGGGTGATCT", 1.02),
    ("GGGAAAGGTT", 1.01),
    ("AAGAGAAAGT", 0.998),
    ("GCCGGCAAGT", 1.02),
    ("TATATCTTCA", 1.02),
    ("AGTAGGTTAG", 0.989),
]

Data provenance is the supplement of paper PMC10126150.
